Test: Cytotoxicity assay (neutral red), WM9S cells
Format: cell-based
Conditions: human, WM9S melanoma cells; read-out: sPAH-IC50 (cytotoxicity of sPAH alone)
measured parameter: pIC50
The quantity pIC50 is defined as the negative base-10 logarithm of the molar concentration.

Qu. Write down pIC50 measured for item COc1cc(C)c(CC/C(C)=C/Cc2cc(O)ccc2O)c(C)c1C [sPAH, Panicein A hydroquinone]
Ans. 4.54

###

System: A375 cells
Test: Cytotoxicity assay (neutral red), A375 cells
Format: cell-based, human
Details: A375; 24 or 48 h; read-out: sPAH-IC50 (cytotoxicity of sPAH alone)
measured parameter: IC50
// unit must come after the numeric part

Qu. Name the recorded IC50 of the molecule listed here: COc1cc(C)c(CC/C(C)=C/Cc2cc(O)ccc2O)c(C)c1C [sPAH, Panicein A hydroquinone]
Ans. 38.3 µM

###

Experiment: Cytotoxicity assay (neutral red), A375 cells
Assay type: cell-based, human
Details: human, A375 melanoma cells, A375; 24 or 48 h; read-out: sPAH-IC50 (cytotoxicity of sPAH alone)
Procedure: Human melanoma cell lines A375 and MeWo were purchased from ATCC, and cultured in DMEM medium supplemented with 10% fetal bovine serum and penicillin/streptomycin (Invitrogen) at 37 °C in a 5% CO2/95% water-saturated air atmosphere. […] Cells were seeded in 96-well plates in triplicate and grown in medium to achieve 70 to 80% confluence. […] Measurements were made in microplate readers (Multiskan Go Microplate Spectrophotometer from Thermo Scientific).
measured parameter: IC50

Qu. Identify measured IC50 associated with COc1cc(C)c(CC/C(C)=C/Cc2cc(O)ccc2O)c(C)c1C [sPAH, Panicein A hydroquinone]
Ans. ~40 µM

###

System: MeWo cells
Assay: Cytotoxicity assay (neutral red), MeWo cells
Format: cell-based, human
Settings: MeWo; 24 or 48 h; read-out: sPAH-IC50 (cytotoxicity of sPAH alone)
measured parameter: IC50

Qu. Quickly give me recorded IC50 for COc1cc(C)c(CC/C(C)=C/Cc2cc(O)ccc2O)c(C)c1C [sPAH, Panicein A hydroquinone]
Ans. ~40 µM
